Target: T1, cynomolgus CD3εδ-Fc heterodimer (Cy CD3ε Fc / CD3δ Fc-HIS) (cynomolgus, UniProt Q95LI8 22-100)
T1 construct: range 22-100; Produced in HEK 293 cells; also called Cy CD3εδ Fc heterodimer; not shown: Fc-HIS part of CD3δ Fc-HIS
T1 sequence (chain, as listed by the source mutant, form in doubt, chain 1 of 2): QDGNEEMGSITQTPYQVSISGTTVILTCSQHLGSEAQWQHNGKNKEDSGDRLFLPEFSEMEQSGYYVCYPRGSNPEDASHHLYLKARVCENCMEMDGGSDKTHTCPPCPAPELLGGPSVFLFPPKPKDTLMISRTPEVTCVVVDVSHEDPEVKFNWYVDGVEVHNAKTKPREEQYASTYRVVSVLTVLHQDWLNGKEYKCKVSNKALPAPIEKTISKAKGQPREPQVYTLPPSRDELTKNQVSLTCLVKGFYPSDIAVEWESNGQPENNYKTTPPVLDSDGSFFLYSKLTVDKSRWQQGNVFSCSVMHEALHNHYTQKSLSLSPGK
T1 sequence (Q95LI8 22-100, stated change not applied, form in doubt, chain 2 of 2): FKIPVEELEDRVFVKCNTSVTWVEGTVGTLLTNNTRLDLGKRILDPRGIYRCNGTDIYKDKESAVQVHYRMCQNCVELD
Assay: BLI (Octet), yeast-produced IgG on AHC sensor, CD3εδ-Fc 100 nM in solution, pH 7.4
PARAMETER_MEASURED: Kd

[[record]]
binder = "ADI-79843 (Antibody No. 8), human IgG1 (antibody, V domains shown, Tested as yeast-produced aglycosylated human IgG1) VH: QVQLVQSGAEVKKPGASVKVSCKASGFNIKDYYMHWVRQAPGQRLEWMGWIDLENANTIYDAKFQGRVTITRDTSASTAYMELSSLRSEDTAVYYCARDAYHRYFYDVWGQGTLVTVSS VL: DIVMTQSPDSLAVSLGERATINCKSSQSLLNARTGKNYLAWYQQKPGQPPKLLIYWASTRESGVPDRFSGSGSGTDFTLTISSLQAEDVAVYYCKQSYSRRTFGGGTKVEIK"
parameter_measured = "Kd"
observed = "5.66 nM"


Now for another entry.
Per the records, this binder ( ADI-74966 (Antibody No. 4), human IgG1 (antibody, V domains shown, Tested as human IgG1 (yeast-produced aglycosylated, or CHO-produced)) VH: QVQLVQSGAEVKKPGASVKVSCKASGFNIKDYYMHWVRQAPGQRLEWMGWIDLENANTIYDAKFQGRVTITRDTSASTAYMELSSLRSEDTAVYYCARDHYHRYFYDVWGQGTLVTVSS VL: DIVMTQSPDSLAVSLGERATINCKSSQSLLNARTGHNYLAWYQQKPGQPPKLLIYWASTRESGVPDRFSGSGSGTDFTLTISSLQAEDVAVYYCKQSYSHRTFGGGTKVEIK ) has Kd equal to 47.6 nM
